# measured target: STK16 (human) (UniProt O75716)
# Sequence (O75716 whole entry, looked up): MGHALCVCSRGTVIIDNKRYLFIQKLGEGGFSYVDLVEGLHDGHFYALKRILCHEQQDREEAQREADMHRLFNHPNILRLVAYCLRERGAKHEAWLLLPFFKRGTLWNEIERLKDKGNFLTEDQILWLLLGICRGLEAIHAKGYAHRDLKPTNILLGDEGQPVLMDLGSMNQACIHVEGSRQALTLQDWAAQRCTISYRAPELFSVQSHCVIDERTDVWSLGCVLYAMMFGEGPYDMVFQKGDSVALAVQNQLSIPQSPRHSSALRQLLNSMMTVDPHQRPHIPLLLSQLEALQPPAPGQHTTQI
# assay details: radiometric filter-binding kinase assay
# test parameters: compound 1.0 µM
measured property: residual activity (%)

CNc1nc(-c2ccc3c(N)n[nH]c3c2)cc(N2C[C@@H](C(=O)NC3CCCCC3)CC[C@H]2C)n1 = 105
O=C(Nc1nc2cc(C(F)(F)F)cc(NC3CC3)n2n1)c1cccnc1 = 83
CCn1c(-c2nonc2N)nc2cncc(CNC3CCNCC3)c21 = 103
CN(C)C/C=C/C(=O)Nc1cccc(C(=O)Nc2ccc(Nc3nccc(-c4cccnc4)n3)cc2)c1 = 103
Cc1cc(NC(=O)c2cccc(NC(=O)/C=C/CN(C)C)c2)ccc1Nc1nccc(-c2cccnc2)n1 = 101
C=CC(=O)N1CCC[C@@H](n2nc(-c3ccc(Oc4ccccc4)cc3)c3c(N)ncnc32)C1 = 117
c1ccc2c(-c3cnn4cc(-c5ccc(N6CCNCC6)cc5)cnc34)ccnc2c1 = 98

###

# measured target: MAPK3 (human)
# assay details: radiometric filter-binding kinase assay
# test parameters: compound 10.0 µM
measured property: residual activity (%)

Examples with their reported residual activity follow.
Cc1ccc(Sc2cnc(Nc3cccc(Br)n3)s2)cc1C(=O)N1CCN(C(=O)CN)CC1 = 99
CNc1nc(-c2ccc3c(N)n[nH]c3c2)cc(N2C[C@@H](C(=O)NC3CCCCC3)CC[C@H]2C)n1 = 108
NC(=O)c1c(NC(=O)C2CC2)sc2c1CCCC2 = 125
O=C(O)c1cc(N=Nc2ccc(S(=O)(=O)Nc3ccccn3)cc2)ccc1O = 110
Cn1nc(Nc2ccc(F)cc2)c2c(N)ncnc21 = 111

(A) COc1ccc2c(c1)c1c3c(c4c5ccccc5n(C)c4c1n2CC(O)CN(C)C)C(=O)NC3=O (stereo not given)
(B) Oc1ccc2ccccc2c1SSc1c(O)ccc2ccccc12
(C) COc1cc(C(=O)N2CCOCC2)c(F)cc1Nc1ncc(C(F)(F)F)c(NC2CC2)n1
(D) NC(=O)Nc1ccc2c(c1)/C(=C/c1cc(-c3cccnc3)c[nH]1)C(=O)N2
// sort entries: residual activity, high to low The reply should contain the labels ordered as requested. A, C, B, D

(1) COc1cc2ncn(-c3cc(OCc4ccccc4S(C)(=O)=O)c(C#N)s3)c2cc1OC
(2) O=C(O)c1ccc(-c2c[nH]c3ncc(-c4ccccc4)cc23)cc1C1CCCC1
Looking only at measured residual activity, which entry is lower, 1 or 2 ? Identify your selection by its label. 2

###

# measured target: INSR (human) (UniProt P06213)
# Sequence (P06213 whole entry, looked up): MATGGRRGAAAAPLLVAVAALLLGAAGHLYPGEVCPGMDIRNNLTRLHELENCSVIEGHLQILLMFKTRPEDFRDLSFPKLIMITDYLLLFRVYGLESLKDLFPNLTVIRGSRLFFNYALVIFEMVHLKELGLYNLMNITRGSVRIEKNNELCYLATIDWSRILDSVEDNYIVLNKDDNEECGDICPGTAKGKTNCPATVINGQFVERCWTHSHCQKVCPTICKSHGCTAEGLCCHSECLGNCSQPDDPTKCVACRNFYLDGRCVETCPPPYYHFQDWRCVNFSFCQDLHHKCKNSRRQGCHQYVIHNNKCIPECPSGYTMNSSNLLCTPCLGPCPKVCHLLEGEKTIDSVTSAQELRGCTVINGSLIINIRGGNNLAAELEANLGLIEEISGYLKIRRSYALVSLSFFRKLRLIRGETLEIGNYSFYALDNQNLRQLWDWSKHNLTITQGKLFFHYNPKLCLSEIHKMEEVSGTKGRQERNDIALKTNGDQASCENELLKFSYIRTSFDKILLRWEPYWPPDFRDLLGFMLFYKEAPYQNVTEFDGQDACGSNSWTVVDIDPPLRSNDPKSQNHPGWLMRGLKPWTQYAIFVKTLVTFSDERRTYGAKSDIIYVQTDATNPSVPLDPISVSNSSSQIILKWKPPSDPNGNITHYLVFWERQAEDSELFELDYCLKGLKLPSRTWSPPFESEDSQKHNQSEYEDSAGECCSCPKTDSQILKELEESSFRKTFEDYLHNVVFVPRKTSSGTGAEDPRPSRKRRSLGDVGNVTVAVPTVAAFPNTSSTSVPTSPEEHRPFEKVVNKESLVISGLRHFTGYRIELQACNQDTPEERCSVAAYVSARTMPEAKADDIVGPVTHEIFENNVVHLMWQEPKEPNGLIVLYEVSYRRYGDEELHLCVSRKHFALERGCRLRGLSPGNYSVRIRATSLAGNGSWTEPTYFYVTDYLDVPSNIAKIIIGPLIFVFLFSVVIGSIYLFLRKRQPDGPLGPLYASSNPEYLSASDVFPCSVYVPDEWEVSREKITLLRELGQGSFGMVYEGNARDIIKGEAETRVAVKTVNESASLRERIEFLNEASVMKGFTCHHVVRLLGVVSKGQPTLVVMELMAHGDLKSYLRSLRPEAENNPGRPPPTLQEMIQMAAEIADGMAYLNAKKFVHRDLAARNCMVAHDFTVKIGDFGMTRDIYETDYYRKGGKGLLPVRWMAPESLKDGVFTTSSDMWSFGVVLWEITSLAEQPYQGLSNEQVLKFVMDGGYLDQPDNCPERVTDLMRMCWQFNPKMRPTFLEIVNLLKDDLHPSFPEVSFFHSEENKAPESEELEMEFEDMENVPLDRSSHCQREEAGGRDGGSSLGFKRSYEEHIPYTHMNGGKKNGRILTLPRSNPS
# assay details: radiometric filter-binding kinase assay
# test parameters: compound 1.0 µM
measured property: residual activity (%)

CC1=C(CO)C(=O)O[C@@H]([C@@H](C)[C@H]2CC[C@H]3[C@@H]4C[C@H]5O[C@]56[C@@H](O)C=CC(=O)[C@]6(C)C4CC[C@]23C)C1 (some centres undefined) = 117
O=c1c(O)c(-c2ccc(O)c(O)c2)oc2cc(O)c(O)c(O)c12 = 86
NC(=O)Nc1ccc2c(c1)/C(=C/c1cc(-c3cccnc3)c[nH]1)C(=O)N2 = 101
O=C(Nc1ccccc1-c1cn2c(CN3CCNCC3)csc2n1)c1cnc2ccccc2n1 = 101

###

# Tested on: AKT2 (human), P31751 [S474D]
# Sequence (P31751 whole entry S474D, looked up): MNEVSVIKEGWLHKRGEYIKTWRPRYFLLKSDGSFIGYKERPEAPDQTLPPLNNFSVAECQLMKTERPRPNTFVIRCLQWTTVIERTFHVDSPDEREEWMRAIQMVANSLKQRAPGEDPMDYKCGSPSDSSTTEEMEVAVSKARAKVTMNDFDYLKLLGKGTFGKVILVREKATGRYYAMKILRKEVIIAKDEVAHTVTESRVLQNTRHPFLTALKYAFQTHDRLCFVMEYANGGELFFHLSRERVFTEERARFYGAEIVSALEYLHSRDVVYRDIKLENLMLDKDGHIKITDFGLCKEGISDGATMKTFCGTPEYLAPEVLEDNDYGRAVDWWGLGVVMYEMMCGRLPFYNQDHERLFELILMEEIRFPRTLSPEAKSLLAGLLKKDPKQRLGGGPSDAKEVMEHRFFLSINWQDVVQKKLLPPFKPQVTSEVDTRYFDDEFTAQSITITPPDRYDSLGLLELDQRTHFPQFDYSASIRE
# assay details: radiometric filter-binding kinase assay
# test parameters: compound 1.0 µM
measured property: residual activity (%)

(A) NC(=O)c1ccc(-c2ccc(Oc3cncc4sc(-c5nn[nH]n5)cc34)cc2)cc1
(B) COc1ccc2c(c1)c1c3c(c4c5ccccc5n(C)c4c1n2CC(O)CN(C)C)C(=O)NC3=O (stereo not given)
// compare measured residual activity, left A , right B , return larger Write down the label of the entry you select. A

###

# measured target: IGF1R (human)
# assay details: radiometric filter-binding kinase assay
# test parameters: compound 10.0 µM
measured property: residual activity (%)

See these solved cases before continuing.
CCc1cncnc1N1CCN(Cc2nc3cc(C(F)(F)F)ccc3[nH]2)CC1 = 82
O=C(NOC[C@H](O)CO)c1ccc(F)c(F)c1Nc1ccc(I)cc1Cl = 113
FC(F)(F)c1ccc(-c2ccc(Oc3cncc4sc(-c5nn[nH]n5)cc34)cc2)cc1 = 74

(1) O=c1c(O)c(-c2ccc(O)c(O)c2)oc2cc(O)c(O)c(O)c12
(2) C=CC(=O)N1CCC[C@@H](n2nc(-c3ccc(Oc4ccccc4)cc3)c3c(N)ncnc32)C1
Recorded residual activity values differ for 1 and 2 ; which one is higher? Identify your pick by its label. 2

(I) O=C(Nc1ccccc1-c1cn2c(CN3CCNCC3)csc2n1)c1cnc2ccccc2n1
(II) c1ccc2c(-c3cnn4cc(-c5ccc(N6CCNCC6)cc5)cnc34)ccnc2c1
(III) NC1(c2ccc(-c3nc4ccn5c(=O)[nH]nc5c4cc3-c3ccccc3)cc2)CCC1
// ranking: key=residual activity, reverse=True List the labels, following the order given in the request. II, III, I

(1) COc1cc(C(=O)N2CCOCC2)c(F)cc1Nc1ncc(C(F)(F)F)c(NC2CC2)n1
(2) Cc1nc(-c2ccc(OCC(C)C)c(C#N)c2)sc1C(=O)O
Return label of the item with the larger residual activity. Candidates: 1 , 2 . Let me know the label of the one you choose. 2
(2: 89%, 1: 8%)

(a) CCn1c(-c2nonc2N)nc2cncc(CNC3CCNCC3)c21
(b) Oc1ccc(/C=C/c2cc(O)cc(O)c2)cc1
(c) CCNc1nc(Nc2cc(F)c(C(=O)N3CCOCC3)cc2OC)ncc1C(F)(F)F
Sort the compounds on residual activity; start with the lowest figure. # the answer lists labels in the order requested c, b, a

###

# measured target: MELK (human)
# assay details: radiometric filter-binding kinase assay
# test parameters: compound 0.1 µM
measured property: residual activity (%)

A selection of reference data follows.
Cc1cc(NC(=O)c2cccc(NC(=O)/C=C/CN(C)C)c2)ccc1Nc1nccc(-c2cccnc2)n1 = 91
NC(=O)c1cc(-c2ccnc(NC3CCCCC3)c2)nc(N2CCNCC2)c1 = 108
COc1ccc(N(C(=O)Nc2c(C)cccc2C)c2cc(Nc3ccc(N4CCN(C)CC4)cc3)ncn2)c(OC)c1 = 93
CCc1cncnc1N1CCN(Cc2nc3cc(C(F)(F)F)ccc3[nH]2)CC1 = 94
COc1cc(O)c2c(c1)/C=C/C[C@H](O)[C@H](O)C(=O)/C=C\C[C@H](C)OC2=O = 95
CC1=C(CO)C(=O)O[C@@H]([C@@H](C)[C@H]2CC[C@H]3[C@@H]4C[C@H]5O[C@]56[C@@H](O)C=CC(=O)[C@]6(C)C4CC[C@]23C)C1 (stereo partly drawn) = 98

(A) O=C(Nc1ccccc1-c1cn2c(CN3CCNCC3)csc2n1)c1cnc2ccccc2n1
(B) CNC(=O)C1[C@H]2O[C@@](C)([C@@H]1N)n1c3ccccc3c3c4c(c5c6ccccc6n2c5c31)C(=O)NC4 (stereo partly drawn)
Which one would you say has the larger residual activity value: A , or B ? // output: label of the selected item A
(A: 97%, B: 10%)

###

# measured target: UniProt P51955
# Sequence (P51955 whole entry, looked up): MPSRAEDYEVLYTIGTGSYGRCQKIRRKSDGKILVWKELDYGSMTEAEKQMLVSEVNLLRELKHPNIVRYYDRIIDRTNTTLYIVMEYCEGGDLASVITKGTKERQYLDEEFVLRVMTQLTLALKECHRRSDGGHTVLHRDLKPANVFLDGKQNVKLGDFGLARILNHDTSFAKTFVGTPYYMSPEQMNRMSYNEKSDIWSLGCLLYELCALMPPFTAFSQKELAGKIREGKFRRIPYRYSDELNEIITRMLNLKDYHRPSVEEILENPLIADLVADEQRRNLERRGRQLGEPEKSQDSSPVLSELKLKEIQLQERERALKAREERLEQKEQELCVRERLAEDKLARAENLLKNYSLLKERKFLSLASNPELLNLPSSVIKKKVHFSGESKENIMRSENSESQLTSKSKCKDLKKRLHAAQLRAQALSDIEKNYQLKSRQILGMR
# assay details: radiometric filter-binding kinase assay
# test parameters: compound 1.0 µM
measured property: residual activity (%)

(A) Cc1nc(-c2ccc(OCC(C)C)c(C#N)c2)sc1C(=O)O
(B) COc1cc2ncn(-c3cc(OCc4ccccc4S(C)(=O)=O)c(C#N)s3)c2cc1OC
Lower value for measured residual activity? Options: A , B Give the chosen item's label as your response. B
(B: 41%, A: 89%)

(1) O=c1c(O)c(-c2ccc(O)c(O)c2)oc2cc(O)c(O)c(O)c12
(2) NC(=O)c1cc(-c2ccnc(NC3CCCCC3)c2)nc(N2CCNCC2)c1
From the recorded data, which exceeds the other in residual activity: 1 or 2 ? When you have decided, please share the label of that item. 2
(2: 129%, 1: 86%)

(P) Cn1c(=O)c2c(ncn2C)n(C)c1=O
(Q) CNC(=O)C1[C@H]2O[C@@](C)([C@@H]1N)n1c3ccccc3c3c4c(c5c6ccccc6n2c5c31)C(=O)NC4 (some centres undefined)
Hi there! Just curious which has the higher residual activity between P and Q . State your choice using its label. P

###

# measured target: PRKCG (human) (UniProt P05129)
# assay details: radiometric filter-binding kinase assay
# test parameters: compound 1.0 µM
measured property: residual activity (%)

(P) O=C(NOC[C@H](O)CO)c1ccc(F)c(F)c1Nc1ccc(I)cc1Cl
(Q) CNC(=O)C1[C@H]2O[C@@](C)([C@@H]1N)n1c3ccccc3c3c4c(c5c6ccccc6n2c5c31)C(=O)NC4 (some centres undefined)
I need your help: which of the pair P , Q has higher residual activity? Write down the label attached to your selection. P
(P: 91%, Q: 13%)

###

# measured target: EPHB2 (human) (UniProt P29323)
# Sequence (P29323 whole entry, looked up): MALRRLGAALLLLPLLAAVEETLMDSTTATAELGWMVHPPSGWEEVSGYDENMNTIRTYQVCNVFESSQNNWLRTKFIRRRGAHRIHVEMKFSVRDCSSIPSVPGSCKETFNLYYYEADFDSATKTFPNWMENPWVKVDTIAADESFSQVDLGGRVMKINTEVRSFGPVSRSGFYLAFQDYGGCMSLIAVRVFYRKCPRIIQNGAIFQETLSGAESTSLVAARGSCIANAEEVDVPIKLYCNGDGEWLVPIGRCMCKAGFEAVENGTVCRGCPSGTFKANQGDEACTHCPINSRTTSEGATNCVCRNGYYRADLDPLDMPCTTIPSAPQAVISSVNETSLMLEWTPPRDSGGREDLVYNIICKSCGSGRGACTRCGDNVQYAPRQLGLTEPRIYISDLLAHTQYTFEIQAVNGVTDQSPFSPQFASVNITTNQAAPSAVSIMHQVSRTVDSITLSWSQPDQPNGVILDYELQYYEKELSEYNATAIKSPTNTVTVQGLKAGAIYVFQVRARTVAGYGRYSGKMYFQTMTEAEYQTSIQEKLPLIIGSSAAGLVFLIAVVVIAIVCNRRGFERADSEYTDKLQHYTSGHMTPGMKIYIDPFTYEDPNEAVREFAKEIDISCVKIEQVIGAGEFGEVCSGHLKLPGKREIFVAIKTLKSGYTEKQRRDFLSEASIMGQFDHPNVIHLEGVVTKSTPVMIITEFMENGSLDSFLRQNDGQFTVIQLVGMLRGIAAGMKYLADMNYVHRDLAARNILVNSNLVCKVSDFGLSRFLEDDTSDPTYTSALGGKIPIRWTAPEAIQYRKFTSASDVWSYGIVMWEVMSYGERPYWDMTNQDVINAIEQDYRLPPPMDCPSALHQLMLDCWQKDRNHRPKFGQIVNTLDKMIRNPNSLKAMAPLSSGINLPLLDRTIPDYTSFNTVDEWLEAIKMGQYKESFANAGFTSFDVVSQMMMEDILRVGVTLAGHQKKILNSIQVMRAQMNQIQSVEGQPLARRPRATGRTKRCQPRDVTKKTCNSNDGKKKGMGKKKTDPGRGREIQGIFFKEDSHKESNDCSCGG
# assay details: radiometric filter-binding kinase assay
# test parameters: compound 0.1 µM
measured property: residual activity (%)

Cc1ccc(-c2ccc3c(ccc4sc5c(c43)NC[C@@H](C)NC5=O)n2)cn1 = 99
CNC(=O)C1[C@H]2O[C@@](C)([C@@H]1N)n1c3ccccc3c3c4c(c5c6ccccc6n2c5c31)C(=O)NC4 (some centres undefined) = 89
O=C(N[C@@H](COc1ccc2[nH]c(=O)[nH]c2c1)c1ccccc1)c1cccn(Cc2ccc(F)c(F)c2)c1=O = 118

(a) CN1CCN(CCOc2cc(OC3CCOCC3)c3c(Nc4c(Cl)ccc5c4OCO5)ncnc3c2)CC1
(b) NC(=O)c1cc(-c2ccnc(NC3CCCCC3)c2)nc(N2CCNCC2)c1
Of a and b , whose reported residual activity is numerically smaller? Reply briefly: the label of your chosen item. a
(a: 66%, b: 105%)

(A) O=C(O)c1ccc(-c2c[nH]c3ncc(-c4ccccc4)cc23)cc1C1CCCC1
(B) COc1ccc(N(C(=O)Nc2c(C)cccc2C)c2cc(Nc3ccc(N4CCN(C)CC4)cc3)ncn2)c(OC)c1
Decide: A or B , by lowest recorded residual activity. I would appreciate it if you answered with the label of your choice. B
(B: 43%, A: 86%)
